- Test Target: COX-2 (Homo sapiens, UniProt P35354)
- Construct: purchased Cayman Chemical Company 701080
- Sequence (P35354 18-604): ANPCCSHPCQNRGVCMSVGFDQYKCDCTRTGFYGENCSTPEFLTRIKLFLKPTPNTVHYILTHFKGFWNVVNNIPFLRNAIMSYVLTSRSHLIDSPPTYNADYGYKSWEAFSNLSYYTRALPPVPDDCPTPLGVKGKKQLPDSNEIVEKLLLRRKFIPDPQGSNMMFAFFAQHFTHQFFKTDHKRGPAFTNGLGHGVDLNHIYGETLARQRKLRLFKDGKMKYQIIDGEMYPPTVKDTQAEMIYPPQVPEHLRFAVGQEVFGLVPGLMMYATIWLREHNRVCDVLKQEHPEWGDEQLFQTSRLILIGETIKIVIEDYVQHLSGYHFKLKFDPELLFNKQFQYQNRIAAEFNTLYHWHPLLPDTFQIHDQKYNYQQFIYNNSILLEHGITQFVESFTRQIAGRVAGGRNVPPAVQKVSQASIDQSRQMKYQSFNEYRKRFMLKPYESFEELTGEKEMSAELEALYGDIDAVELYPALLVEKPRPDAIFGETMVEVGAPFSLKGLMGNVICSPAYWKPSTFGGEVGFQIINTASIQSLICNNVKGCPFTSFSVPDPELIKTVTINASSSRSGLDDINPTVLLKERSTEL
- Experimental Protocol: COX-2 inhibitory screening assay (Cayman kit)
- Type: biochemical
- Condition Info: at 0.100 mg/mL; read-out: COX-2 mean % inhibition ± SD
Metric: inhibition at 100 µg/mL (%)
Give bare numbers, in %.

For every listed record, write down its inhibition at 100 µg/mL.
1. COc1cc2[nH]c(=S)n(-c3cccc(C(F)(F)F)c3)c(=O)c2cc1OC
2. COc1ccc(Br)c(CSc2nc3ccc(Cl)cc3c(=O)n2-c2ccc([N+](=O)[O-])cc2)c1
3. O=c1c2cc(Br)ccc2nc(SCc2cccc([N+](=O)[O-])c2)n1-c1ccc([N+](=O)[O-])cc1
4. O=c1c2cc(Cl)ccc2nc(SCc2ccccc2F)n1-c1cccc(C(F)(F)F)c1
5. O=c1c2cc(Cl)ccc2[nH]c(=S)n1-c1ccc(C(F)(F)F)cc1
6. COc1ccc(Br)c(CSc2nc3ccc(Br)cc3c(=O)n2-c2ccc(C(F)(F)F)cc2)c1

[A]
1. 9.85
2. 28.9
3. 14.2
4. 34.2
5. 20.2
6. 31

----------
Kindly supply the reported Fold change of LDHA inhibition as compared to 0.1 mg/mL values for the records listed here.
- Test Target: purified recombinant human LDHA protein (Homo sapiens)
- Experimental Protocol: Lactate dehydrogenase A (LDHA) inhibitory assay
- Assay type: biochemical
- Condition Info: % inhibition at 0.200 mg/mL divided by % inhibition at 0.100 mg/mL
- Procedure: The LDHA inhibitory effectiveness was investigated by measuring the amounts of consumed NADH [73]. […] The fluorescence of NADH, which has an excitation wavelength of 340 nm and an emission wavelength of 460 nm, was detected using a spectrofluorometer. […] The LDHA inhibitory efficiency was expressed as an inhibition percentage, which was determined via a comparison with the negative control experiments.
Answers are plain numbers, in fold.

Smiles Text: O=c1c2cc(Cl)ccc2[nH]c(=S)n1-c1ccc(C(F)(F)F)cc1
Test Target: purified recombinant human LDHA protein (Homo sapiens)
Measured: 1.59

Provide reported Fold change of LDHA inhibition as compared to 0.1 mg/mL for each item, in the same order as listed.
1. O=c1c2cc(Br)ccc2nc(SCc2ccc(Cl)cc2)n1-c1cccc(C(F)(F)F)c1
2. COc1cc2[nH]c(=S)n(-c3ccc([N+](=O)[O-])cc3)c(=O)c2cc1OC
3. O=c1c2cc(Br)ccc2nc(SCc2cccc([N+](=O)[O-])c2)n1-c1ccc([N+](=O)[O-])cc1
4. O=c1c2cc(Cl)ccc2nc(SCc2ccc(Cl)cc2)n1-c1ccc(C(F)(F)F)cc1

[A]
1: 1.55; 2: 1.47; 3: 1.75; 4: 1.47

Go through the items and report each one's Fold change of LDHA inhibition as compared to 0.1 mg/mL.
1. COc1ccc(Br)c(CSc2nc3ccc(Cl)cc3c(=O)n2-c2ccc([N+](=O)[O-])cc2)c1
2. COc1cc2[nH]c(=S)n(-c3cccc(C(F)(F)F)c3)c(=O)c2cc1OC
3. O=c1c2cc(Br)ccc2[nH]c(=S)n1-c1cccc(C(F)(F)F)c1

[A]
[1.60, 0.20, 1.45]
